Origin of measurements: paper PMC7356228

- target or system: TsTS (Trichinella spiralis, UniProt Q9NDD3)
- Sequence (Q9NDD3 entry or part of it): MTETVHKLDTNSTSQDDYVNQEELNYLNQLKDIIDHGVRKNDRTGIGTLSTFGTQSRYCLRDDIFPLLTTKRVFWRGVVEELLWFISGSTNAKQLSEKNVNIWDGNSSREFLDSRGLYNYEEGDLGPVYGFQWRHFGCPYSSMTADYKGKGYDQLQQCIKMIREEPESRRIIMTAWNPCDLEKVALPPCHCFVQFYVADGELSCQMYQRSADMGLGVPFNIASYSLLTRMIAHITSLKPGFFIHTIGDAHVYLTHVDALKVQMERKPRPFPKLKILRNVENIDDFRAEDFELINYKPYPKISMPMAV
- assay details: Inhibition of TS-catalyzed reaction (tritium release from [5-3H]dUMP)
- Assay type: biochemical, T. spiralis
- condition set: compound 1000 µM; 20 µM dUMP, 250 µM meTHF
Reported remaining activity at 1000 µM is given for each of the following compounds.
Expressed in %, but write only the number.

Some solved cases for reference:
// query For COc1c(O)cc2oc3ccccc3c(=O)c2c1O , what is its reported remaining activity at 1000 µM?
// result 23

// query Which remaining activity at 1000 µM value belongs to O=C(CCc1ccc(O)cc1)c1c(O)cc(O)cc1O ?
// result 61

// query Reported remaining activity at 1000 µM for O=C1c2c(O)cccc2C([C@@H]2O[C@H](CO)[C@@H](O)[C@H](O)[C@H]2O)c2cc(CO)cc(O)c21 (stereo partly shown) : what is it?
// result 93

More entries:
// query I am curious: what remaining activity at 1000 µM value has been reported for CC1(C)CCc2cc3c(cc2O1)OC(c1ccccc1)CC3=O (stereo not shown) ?
// result 85

// query Reported remaining activity at 1000 µM, compound CC1=C[C@]2(O)C(=O)[C@H](C)C[C@@H]3[C@H](CC[C@](C)(O)C[C@H]2C1=O)C3(C)C : ____
// result 95

// query State the recorded remaining activity at 1000 µM for this entry: CC(C)=CCc1c(O)ccc2c1OC(c1ccccc1)CC2=O (racemic) [(±)-7-Hydro-xy-8-C-prenyl flavanone]
// result 25

----------
- target or system: mTS (Mus musculus, UniProt P07607)
- Construct: made in house
- Sequence (P07607 whole entry): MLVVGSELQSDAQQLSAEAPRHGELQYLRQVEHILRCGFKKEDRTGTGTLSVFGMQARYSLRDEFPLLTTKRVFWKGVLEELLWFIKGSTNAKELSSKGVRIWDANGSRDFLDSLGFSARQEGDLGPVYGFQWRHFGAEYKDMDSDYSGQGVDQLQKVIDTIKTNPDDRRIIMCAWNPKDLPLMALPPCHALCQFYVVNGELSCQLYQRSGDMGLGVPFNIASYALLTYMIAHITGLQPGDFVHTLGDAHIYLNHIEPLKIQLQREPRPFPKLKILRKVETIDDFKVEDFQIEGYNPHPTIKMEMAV
- assay details: Inhibition of TS-catalyzed reaction (tritium release from [5-3H]dUMP)
- Type: biochemical
- condition set: 20 µM dUMP, 250 µM meTHF; read-out: IC50 Assessment
// reported IC50 for each item listed

# annotated cases, reported IC50 shown
// query # get_value(readout= IC50, system= mTS (Mus musculus, UniProt P07607)) for COC(=O)/C=C/C(C)=C\C=C\C(C)=C\C=C\C=C(C)\C=C\C=C(C)\C=C\C(=O)O
// result > 667 µM

// query What value of IC50 on mTS (Mus musculus, UniProt P07607) does COc1cc(/C=C/C(=O)O[C@H]2[C@H](O[C@@H]3O[C@@H](C)[C@H](O)[C@@H](O)[C@H]3O)[C@@H](O)[C@H](OCCc3ccc(O)c(O)c3)O[C@@H]2CO)ccc1O [Leucosceptoside A (13), Leucosceptoside A] have?
// result > 1000 µM

// query Report IC50 for O=C1c2c(O)cccc2C([C@@H]2O[C@H](CO)[C@@H](O)[C@H](O)[C@H]2O)c2cc(CO)cc(O)c21 (some centres unmarked) tested on mTS (Mus musculus, UniProt P07607).
// result > 1000 µM

// query Notebook entry, mTS (Mus musculus, UniProt P07607) assay: IC50 of O=C(/C=C/c1ccc(O)c(O)c1)O[C@@H]1C[C@](O)(C(=O)O)C[C@@H](O)[C@H]1O = ?
// result > 1000 µM

Turning to the following molecule.
// query Notebook entry, mTS (Mus musculus, UniProt P07607) assay: IC50 of O=C(OCC1=C[C@@H](O)[C@@H]2C=CO[C@@H](O[C@@H]3O[C@H](CO)[C@@H](O)[C@H](O)[C@H]3O)[C@H]12)c1ccc(O)cc1 [Agnuside (8), Agnuside] = ?
// result > 1000 µM
